Origin of measurements: ChEMBL document CHEMBL1932926

Provide the reported EC50 of each item.
System: Col2
EXPERIMENT DESCRIPTION: Cytotoxicity against human Col2 cells by SRB assay
Type: functional
CONDITIONS: read-out: ED50 (the source's name)
Express the result in µM but write the number alone.

[in] Need EC50 of C=C1CC[C@@H]2[C@](C)(CO[Si](C)(C)C(C)(C)C)[C@H](O)CC[C@@]2(C)[C@@H]1C/C=C1/C(=O)OC[C@H]1OC(C)=O , thanks.
[out] 8.94

[in] Need EC50 of C=C1CC[C@@H]2[C@](C)(COC(C)=O)[C@H](O)CC[C@@]2(C)[C@@H]1C/C=C1/C(=O)OC[C@H]1OC(C)=O , thanks.
[out] 15.2

[in] Need EC50 of C=C1CC[C@@H]2[C@](C)(CO[Si](C)(C)C(C)(C)C)[C@H](OC(C)=O)CC[C@@]2(C)[C@@H]1C/C=C1/C(=O)OC[C@H]1O , thanks.
[out] 11.3

----------
Test system: MCF7
EXPERIMENT DESCRIPTION: Cytotoxicity against human MCF7 cells by SRB assay
Type: functional
CONDITIONS: read-out: ED50 (the source's name)
Each record's EC50 is compared with label 0 = under 8 µM, label 1 = from 8 µM up to 20 µM, label 2 = 20 µM and over to give its class.

[in] For C=C1CC[C@@H]2[C@](C)(CO[Si](C)(C)C(C)(C)C)[C@H](OC(C)=O)CC[C@@]2(C)[C@@H]1C/C=C1/C(=O)OC[C@H]1O , which EC50 bin applies?
[out] label 1

[in] For C=C1CC[C@@H]2[C@](C)(COC(c3ccccc3)(c3ccccc3)c3ccccc3)[C@H](OC(C)=O)CC[C@@]2(C)[C@@H]1C/C=C1/C(=O)OC[C@H]1OC(C)=O , which EC50 bin applies?
[out] label 2

[in] For Cc1c2ccncc2c(C)c2c1[nH]c1ccccc12 [ELLIPTECINE] , which EC50 bin applies?
[out] label 0

[in] For C=C1CC[C@@H]2[C@](C)(COC(C)=O)[C@H](O)CC[C@@]2(C)[C@@H]1C/C=C1/C(=O)OC[C@H]1O , which EC50 bin applies?
[out] label 1

[in] For C=C1CC[C@@H]2[C@](C)(COC(C)=O)[C@H](O)CC[C@@]2(C)[C@@H]1C/C=C1/C(=O)OC[C@H]1OC(C)=O , which EC50 bin applies?
[out] label 1

[in] For C=C1CC[C@@H]2[C@](C)(COC(c3ccccc3)(c3ccccc3)c3ccccc3)[C@H](O)CC[C@@]2(C)[C@@H]1C/C=C1/C(=O)OC[C@H]1O , which EC50 bin applies?
[out] label 0

[in] For C=C1CC[C@@H]2[C@](C)(COC(C)=O)[C@H](OC(C)=O)CC[C@@]2(C)[C@@H]1C/C=C1/C(=O)OC[C@H]1OC(C)=O , which EC50 bin applies?
[out] label 1

[in] For C=C1CC[C@@H]2[C@](C)(CO[Si](C)(C)C(C)(C)C)[C@H](OC(C)=O)CC[C@@]2(C)[C@@H]1C/C=C1/C(=O)OC[C@H]1OC(C)=O , which EC50 bin applies?
[out] label 0

[in] For C=C1CC[C@@H]2[C@](C)(CO[Si](C)(C)C(C)(C)C)[C@H](O)CC[C@@]2(C)[C@@H]1C/C=C1/C(=O)OC[C@H]1OC(C)=O , which EC50 bin applies?
[out] label 1

[in] For C=C1CC[C@@H]2[C@](C)(CO[Si](C(C)C)(C(C)C)C(C)C)[C@H](OC(C)=O)CC[C@@]2(C)[C@@H]1C/C=C1/C(=O)OC[C@H]1OC(C)=O , which EC50 bin applies?
[out] label 1

[in] For C=C1CC[C@@H]2[C@](C)(CO)[C@H](OC(C)=O)CC[C@@]2(C)[C@@H]1C/C=C1/C(=O)OC[C@H]1O , which EC50 bin applies?
[out] label 2

[in] For C=C1CC[C@@H]2[C@](C)(CO[Si](c3ccccc3)(c3ccccc3)C(C)(C)C)[C@H](O)CC[C@@]2(C)[C@@H]1C/C=C1/C(=O)OC[C@H]1OC(C)=O , which EC50 bin applies?
[out] label 1

[in] For C=C1CC[C@@H]2[C@](C)(CO[Si](c3ccccc3)(c3ccccc3)C(C)(C)C)[C@H](OC(C)=O)CC[C@@]2(C)[C@@H]1C/C=C1/C(=O)OC[C@H]1O , which EC50 bin applies?
[out] label 0

----------
Tested on: Col2
EXPERIMENT DESCRIPTION: Cytotoxicity against human Col2 cells by SRB assay
Type: functional
CONDITIONS: read-out: ED50 (the source's name)
VALUE TYPE: EC50

[in] Need EC50 of C=C1CC[C@@H]2[C@]3(C)COC(C)(C)O[C@@H]3CC[C@@]2(C)[C@@H]1C/C=C1/C(=O)OC[C@H]1O , thanks.
[out] 39.8 µM

[in] Need EC50 of Cc1c2ccncc2c(C)c2c1[nH]c1ccccc12 , thanks.
[out] 2.72 µM

[in] Need EC50 of C=C1CC[C@@H]2[C@](C)(CO[Si](c3ccccc3)(c3ccccc3)C(C)(C)C)[C@H](O)CC[C@@]2(C)[C@@H]1C/C=C1/C(=O)OC[C@H]1OC(C)=O , thanks.
[out] 10.7 µM

[in] Need EC50 of C=C1CC[C@@H]2[C@](C)(CO[Si](c3ccccc3)(c3ccccc3)C(C)(C)C)[C@H](O)CC[C@@]2(C)[C@@H]1C/C=C1/C(=O)OC[C@H]1O , thanks.
[out] 9.65 µM

[in] Need EC50 of C=C1CC[C@@H]2[C@](C)(CO[Si](c3ccccc3)(c3ccccc3)C(C)(C)C)[C@H](OC(C)=O)CC[C@@]2(C)[C@@H]1C/C=C1/C(=O)OC[C@H]1O , thanks.
[out] 3.8 µM

[in] Need EC50 of C=C1CC[C@@H]2[C@](C)(COC(C)=O)[C@H](OC(C)=O)CC[C@@]2(C)[C@@H]1C/C=C1/C(=O)OC[C@H]1OC(C)=O , thanks.
[out] 10.8 µM

----------
Test system: P388
EXPERIMENT DESCRIPTION: Cytotoxicity against mouse P388 cells by SRB assay
Type: functional
CONDITIONS: read-out: ED50 (the source's name)
// classify: if (EC50 < 2 µM) true else false

[in] Decide: EC50 of C=C1CC[C@@H]2[C@](C)(CO[Si](C)(C)C(C)(C)C)[C@H](OC(C)=O)CC[C@@]2(C)[C@@H]1C/C=C1/C(=O)OC[C@H]1O strictly below 2 µM?
[out] true

[in] Decide: EC50 of C=C1CC[C@@H]2[C@](C)(CO[Si](C(C)C)(C(C)C)C(C)C)[C@H](O)CC[C@@]2(C)[C@@H]1C/C=C1/C(=O)OC[C@H]1O strictly below 2 µM?
[out] true

[in] Decide: EC50 of C=C1CC[C@@H]2[C@](C)(CO[Si](C)(C)C(C)(C)C)[C@H](O)CC[C@@]2(C)[C@@H]1C/C=C1/C(=O)OC[C@H]1O strictly below 2 µM?
[out] false

[in] Decide: EC50 of C=C1CC[C@@H]2[C@](C)(CO[Si](C(C)C)(C(C)C)C(C)C)[C@H](OC(C)=O)CC[C@@]2(C)[C@@H]1C/C=C1/C(=O)OC[C@H]1OC(C)=O strictly below 2 µM?
[out] true

[in] Decide: EC50 of C=C1CC[C@@H]2[C@](C)(CO)[C@H](OC(C)=O)CC[C@@]2(C)[C@@H]1C/C=C1/C(=O)OC[C@H]1O strictly below 2 µM?
[out] false

[in] Decide: EC50 of C=C1CC[C@@H]2[C@](C)(COC(C)=O)[C@H](OC(C)=O)CC[C@@]2(C)[C@@H]1C/C=C1/C(=O)OC[C@H]1O strictly below 2 µM?
[out] false

----------
Tested on: Col2
EXPERIMENT DESCRIPTION: Cytotoxicity against human Col2 cells by SRB assay
Format: functional
CONDITIONS: read-out: ED50 (the source's name)
pEC50: −log10 of the molar value.
The threshold is inclusive: pEC50 of exactly 5 counts as criterion met; values below receive criterion not met.

[in] Is it the case that C=C1CC[C@@H]2[C@](C)(CO[Si](C(C)C)(C(C)C)C(C)C)[C@H](O)CC[C@@]2(C)[C@@H]1C/C=C1/C(=O)OC[C@H]1O has pEC50 reaching or exceeding 5?
[out] criterion met

[in] Is it the case that C=C1CC[C@@H]2[C@](C)(COC(c3ccccc3)(c3ccccc3)c3ccccc3)[C@H](OC(C)=O)CC[C@@]2(C)[C@@H]1C/C=C1/C(=O)OC[C@H]1OC(C)=O has pEC50 reaching or exceeding 5?
[out] criterion not met

[in] Is it the case that C=C1CC[C@@H]2[C@](C)(COC(c3ccccc3)(c3ccccc3)c3ccccc3)[C@H](O)CC[C@@]2(C)[C@@H]1C/C=C1/C(=O)OC[C@H]1O has pEC50 reaching or exceeding 5?
[out] criterion met

[in] Is it the case that C=C1CC[C@@H]2[C@](C)(COC(C)=O)[C@H](OC(C)=O)CC[C@@]2(C)[C@@H]1C/C=C1/C(=O)OC[C@H]1O has pEC50 reaching or exceeding 5?
[out] criterion not met

[in] Is it the case that C=C1CC[C@@H]2[C@](C)(CO[Si](C)(C)C(C)(C)C)[C@H](OC(C)=O)CC[C@@]2(C)[C@@H]1C/C=C1/C(=O)OC[C@H]1OC(C)=O has pEC50 reaching or exceeding 5?
[out] criterion met

[in] Is it the case that C=C1CC[C@@H]2[C@](C)(CO[Si](C)(C)C(C)(C)C)[C@H](O)CC[C@@]2(C)[C@@H]1C/C=C1/C(=O)OC[C@H]1O has pEC50 reaching or exceeding 5?
[out] criterion not met

[in] Is it the case that C=C1CC[C@@H]2[C@](C)(CO)[C@H](OC(C)=O)CC[C@@]2(C)[C@@H]1C/C=C1/C(=O)OC[C@H]1O has pEC50 reaching or exceeding 5?
[out] criterion not met
